IC50 by entry:
# experimental system: recombinant human monoamine oxidase-B (Homo sapiens, UniProt P27338)
# Sequence (P27338 whole entry): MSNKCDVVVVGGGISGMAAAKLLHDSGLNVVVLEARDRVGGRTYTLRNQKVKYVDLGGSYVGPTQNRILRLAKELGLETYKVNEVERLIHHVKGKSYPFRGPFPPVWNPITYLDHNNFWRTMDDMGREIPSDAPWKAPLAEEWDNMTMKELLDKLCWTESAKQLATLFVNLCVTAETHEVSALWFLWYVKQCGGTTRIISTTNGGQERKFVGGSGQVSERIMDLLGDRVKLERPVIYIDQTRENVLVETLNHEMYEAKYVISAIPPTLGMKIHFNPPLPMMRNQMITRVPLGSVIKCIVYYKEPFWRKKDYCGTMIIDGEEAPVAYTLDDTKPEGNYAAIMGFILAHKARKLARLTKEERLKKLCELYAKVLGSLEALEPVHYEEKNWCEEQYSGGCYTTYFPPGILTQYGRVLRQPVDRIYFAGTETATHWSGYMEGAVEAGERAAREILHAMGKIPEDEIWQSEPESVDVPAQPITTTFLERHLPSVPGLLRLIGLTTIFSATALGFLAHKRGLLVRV
# assay remarks: MAO-B inhibition, kynuramine deamination assay
# test parameters: kynuramine 50 μM, pH 7.4, 37°C; mean ±SD of triplicate
measured endpoint: IC50 (µM)

INSERT INTO results (compound, measured_endpoint, assay_value) VALUES
  ('COC(Cc1c2c(c(O)c3c(=O)c(-c4ccc(O)c(O)c4)coc13)C=CC(C)(C)O2)C(C)(C)O (stereo not shown) [Kazosajin I]', 'IC50', 11.6),
  ('CC(C)=CCc1c2c(c(O)c3c(=O)c(-c4ccc(O)cc4)coc13)C=CC(C)(C)O2 [Warangalone (VII), warangalone]', 'IC50', 5.69),
  ('COC(c1c2c(c(O)c3c(=O)c(-c4ccc(O)c(O)c4)coc13)C=CC(C)(C)O2)C1OC1(C)C (stereo not shown) [Kazosajin IV]', 'IC50', 17.7),
  ('CC(C)=CCc1c2c(c(O)c3c(=O)c(-c4ccc(O)c(O)c4)coc13)C=CC(C)(C)O2 [Auriculasin (VI), auriculasin]', 'IC50', 1.91);
